# TARGET: N-type calcium channel (NTCC) (Homo sapiens, UniProt Q00975)
# Sequence (Q00975 whole entry): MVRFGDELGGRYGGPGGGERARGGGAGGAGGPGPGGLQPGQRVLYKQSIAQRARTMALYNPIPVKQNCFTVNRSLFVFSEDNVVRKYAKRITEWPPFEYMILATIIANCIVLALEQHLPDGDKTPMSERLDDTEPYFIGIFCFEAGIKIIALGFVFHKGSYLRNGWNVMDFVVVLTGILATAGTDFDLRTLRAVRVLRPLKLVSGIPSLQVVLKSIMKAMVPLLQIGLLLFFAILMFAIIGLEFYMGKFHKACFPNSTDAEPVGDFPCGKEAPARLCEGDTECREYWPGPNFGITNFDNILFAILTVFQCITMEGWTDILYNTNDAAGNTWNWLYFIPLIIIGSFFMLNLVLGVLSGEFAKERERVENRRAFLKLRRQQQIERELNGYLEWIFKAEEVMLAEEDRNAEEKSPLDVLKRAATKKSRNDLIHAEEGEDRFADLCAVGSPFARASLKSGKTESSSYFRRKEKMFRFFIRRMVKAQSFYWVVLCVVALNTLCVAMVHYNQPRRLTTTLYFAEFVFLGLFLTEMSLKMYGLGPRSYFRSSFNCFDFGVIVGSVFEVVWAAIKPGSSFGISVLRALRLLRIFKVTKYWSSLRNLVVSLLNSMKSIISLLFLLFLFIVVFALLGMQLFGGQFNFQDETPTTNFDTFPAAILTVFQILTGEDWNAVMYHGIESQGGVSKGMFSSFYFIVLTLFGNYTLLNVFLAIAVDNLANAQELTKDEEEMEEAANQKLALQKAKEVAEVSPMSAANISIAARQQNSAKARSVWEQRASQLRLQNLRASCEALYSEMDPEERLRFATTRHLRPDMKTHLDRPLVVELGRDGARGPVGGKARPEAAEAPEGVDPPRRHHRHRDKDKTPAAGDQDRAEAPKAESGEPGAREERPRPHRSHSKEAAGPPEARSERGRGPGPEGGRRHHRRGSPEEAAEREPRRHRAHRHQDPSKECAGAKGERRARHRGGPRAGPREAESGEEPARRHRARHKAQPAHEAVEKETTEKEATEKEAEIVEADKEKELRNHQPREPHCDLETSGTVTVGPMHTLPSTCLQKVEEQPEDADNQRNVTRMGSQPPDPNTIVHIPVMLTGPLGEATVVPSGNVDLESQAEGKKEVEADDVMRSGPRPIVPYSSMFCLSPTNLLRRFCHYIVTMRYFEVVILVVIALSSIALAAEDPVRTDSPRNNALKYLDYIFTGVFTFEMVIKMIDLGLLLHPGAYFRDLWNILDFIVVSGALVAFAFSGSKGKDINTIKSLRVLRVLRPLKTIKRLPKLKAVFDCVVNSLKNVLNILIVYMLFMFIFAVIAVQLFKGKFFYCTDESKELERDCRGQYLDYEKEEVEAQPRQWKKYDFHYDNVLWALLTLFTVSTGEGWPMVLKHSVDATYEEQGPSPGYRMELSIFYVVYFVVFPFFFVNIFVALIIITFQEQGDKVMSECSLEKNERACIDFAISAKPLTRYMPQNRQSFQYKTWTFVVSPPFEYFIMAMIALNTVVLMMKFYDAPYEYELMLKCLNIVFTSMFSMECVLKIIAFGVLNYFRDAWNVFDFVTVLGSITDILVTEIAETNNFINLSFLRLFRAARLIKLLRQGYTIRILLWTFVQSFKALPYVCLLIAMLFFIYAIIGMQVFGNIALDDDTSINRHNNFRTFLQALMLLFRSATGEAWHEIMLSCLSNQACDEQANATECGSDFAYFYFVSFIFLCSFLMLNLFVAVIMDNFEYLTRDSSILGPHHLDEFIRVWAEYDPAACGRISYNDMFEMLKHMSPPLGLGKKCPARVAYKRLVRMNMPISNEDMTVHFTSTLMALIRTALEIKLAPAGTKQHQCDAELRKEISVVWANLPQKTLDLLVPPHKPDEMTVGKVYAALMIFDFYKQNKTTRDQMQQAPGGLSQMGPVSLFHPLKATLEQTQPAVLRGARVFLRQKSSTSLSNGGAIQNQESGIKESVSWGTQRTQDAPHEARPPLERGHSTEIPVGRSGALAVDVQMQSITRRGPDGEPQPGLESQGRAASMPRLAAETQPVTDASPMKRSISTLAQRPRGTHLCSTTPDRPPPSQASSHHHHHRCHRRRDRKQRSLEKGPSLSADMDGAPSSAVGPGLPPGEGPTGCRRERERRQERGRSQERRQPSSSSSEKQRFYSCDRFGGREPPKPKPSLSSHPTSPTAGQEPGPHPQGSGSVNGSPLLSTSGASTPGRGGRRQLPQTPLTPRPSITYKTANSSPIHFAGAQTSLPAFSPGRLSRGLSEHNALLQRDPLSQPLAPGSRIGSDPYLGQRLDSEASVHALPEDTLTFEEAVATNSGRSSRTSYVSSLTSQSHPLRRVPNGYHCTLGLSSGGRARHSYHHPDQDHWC
# Sequence (P54289 25-956 partner limits assumed): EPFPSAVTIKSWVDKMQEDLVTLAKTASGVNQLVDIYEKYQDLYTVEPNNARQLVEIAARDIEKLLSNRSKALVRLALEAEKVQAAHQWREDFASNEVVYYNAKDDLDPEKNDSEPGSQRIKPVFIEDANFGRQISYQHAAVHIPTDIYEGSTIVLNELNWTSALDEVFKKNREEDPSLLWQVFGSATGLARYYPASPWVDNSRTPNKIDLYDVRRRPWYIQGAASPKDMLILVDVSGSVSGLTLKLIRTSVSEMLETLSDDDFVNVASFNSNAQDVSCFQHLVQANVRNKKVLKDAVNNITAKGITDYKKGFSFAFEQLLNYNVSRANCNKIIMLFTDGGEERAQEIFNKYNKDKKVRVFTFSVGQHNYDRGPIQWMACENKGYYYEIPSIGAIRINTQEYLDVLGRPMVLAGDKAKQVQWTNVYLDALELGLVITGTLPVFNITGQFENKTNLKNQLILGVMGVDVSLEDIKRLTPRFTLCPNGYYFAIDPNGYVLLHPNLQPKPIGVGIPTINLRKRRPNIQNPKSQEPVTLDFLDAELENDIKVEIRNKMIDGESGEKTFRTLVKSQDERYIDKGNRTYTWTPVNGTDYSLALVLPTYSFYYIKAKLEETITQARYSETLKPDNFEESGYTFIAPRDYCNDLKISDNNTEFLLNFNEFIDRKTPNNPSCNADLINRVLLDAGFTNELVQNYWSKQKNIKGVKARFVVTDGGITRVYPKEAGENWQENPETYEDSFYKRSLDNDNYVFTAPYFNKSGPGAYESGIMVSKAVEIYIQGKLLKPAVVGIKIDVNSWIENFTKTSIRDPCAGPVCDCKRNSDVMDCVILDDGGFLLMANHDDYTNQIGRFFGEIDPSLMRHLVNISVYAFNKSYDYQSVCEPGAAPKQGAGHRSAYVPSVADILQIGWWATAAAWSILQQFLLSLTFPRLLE
# Sequence (P54289 957-1103 partner limits assumed): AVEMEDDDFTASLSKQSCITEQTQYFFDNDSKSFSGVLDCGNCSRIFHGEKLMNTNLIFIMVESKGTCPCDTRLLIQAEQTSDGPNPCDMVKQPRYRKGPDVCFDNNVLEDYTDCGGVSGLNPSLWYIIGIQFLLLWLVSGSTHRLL
# Sequence (P54284 whole entry partner): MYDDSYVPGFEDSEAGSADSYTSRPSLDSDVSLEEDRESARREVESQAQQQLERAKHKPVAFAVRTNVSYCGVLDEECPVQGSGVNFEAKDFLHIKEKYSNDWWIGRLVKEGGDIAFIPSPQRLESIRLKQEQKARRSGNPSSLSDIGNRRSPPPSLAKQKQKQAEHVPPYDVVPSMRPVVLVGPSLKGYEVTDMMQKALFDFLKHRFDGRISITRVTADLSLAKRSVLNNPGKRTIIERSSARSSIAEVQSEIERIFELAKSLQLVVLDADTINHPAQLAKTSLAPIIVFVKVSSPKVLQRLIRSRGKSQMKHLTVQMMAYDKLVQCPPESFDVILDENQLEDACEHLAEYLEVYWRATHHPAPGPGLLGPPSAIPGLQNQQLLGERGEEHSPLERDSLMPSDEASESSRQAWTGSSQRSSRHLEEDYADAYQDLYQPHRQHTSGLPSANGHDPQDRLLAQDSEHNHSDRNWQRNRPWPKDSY
# TEST_METHOD_NOTES: FLIPR calcium mobilization assay for N-type calcium channel
# RECORDED_CONDITIONS: calcium mobilization in vitro assay; differentiated IMR32 cells, 5 μM nitrendipine, 90 mM KCl
RESULT_TYPE: IC50 (nM)

IC50 value, target or system N-type calcium channel (NTCC) (Homo sapiens, UniProt Q00975), for CN(C(=O)CON=C1CCN(S(=O)(=O)c2ccc(OC(F)(F)F)cc2)CC1)c1ccccc1 : 1200

1: O=C(CON=C1CCN(S(=O)(=O)c2ccc(OC(F)(F)F)cc2)CC1)NC1CCCCC1
2: O=C(CON=C1CCN(S(=O)(=O)c2ccc(OC(F)(F)F)cc2)CC1)NCc1ccccc1
3: CCCNC(=O)CON=C1CCN(S(=O)(=O)c2ccc(OC(F)(F)F)cc2)CC1
Output the entries ranked by IC50 from maximum down to minimum. # the answer lists labels in the order requested
2, 1, 3

====

# TARGET: N-type calcium channel (NTCC) (Homo sapiens, UniProt Q00975)
# TEST_METHOD_NOTES: FLIPR calcium mobilization assay for N-type calcium channel
# RECORDED_CONDITIONS: calcium mobilization in vitro assay; differentiated IMR32 cells, 5 μM nitrendipine, 90 mM KCl
RESULT_TYPE: IC50 (nM)

Known value: N-type calcium channel (NTCC) (Homo sapiens, UniProt Q00975) IC50 of the compound O=C(Nc1ccc(F)cc1)ON=C1CCN(C(=O)Oc2cccc(C(F)(F)F)c2)CC1 [Example 131] equals 1800

Here O=C(Nc1ccc(F)cc1)ON=C1CCN(S(=O)(=O)c2cccc(C(F)(F)F)c2)CC1 [Example 104] was tested on N-type calcium channel (NTCC) (Homo sapiens, UniProt Q00975), and its IC50 came to 240

Known value: N-type calcium channel (NTCC) (Homo sapiens, UniProt Q00975) IC50 of the compound O=C(CON=C1CCN(S(=O)(=O)c2ccc(OC(F)(F)F)cc2)CC1)Nc1ccccc1 [Example 2] equals 420

Tested on N-type calcium channel (NTCC) (Homo sapiens, UniProt Q00975): CC(C)CNC(=O)CON=C1CCN(S(=O)(=O)c2ccc(OC(F)(F)F)cc2)CC1 [Example 99] . Observed IC50: 300

Each recorded value in this set is attributed to patent US20110190300A1.
